target: T1, recombinant human TR-2 with a C-terminal hexahistidine tag (TR-2-His) (human, UniProt O14763 56-207); assay: SPR Biacore 2000; antibody captured on anti-human antibody chip, 226 nM TR-2-His injected, 25 C, 1:1 model;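 note: goat anti-human capture surface amine-coupled on CM5 chip, HBS-P running buffer with BSA, responses normalized to captured antibody level, kinetics from global 1:1 fitting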
T1 construct: also called soluble TR-2-His
Measurement label: kon (M⁻¹ s⁻¹)
Please state the figure in M⁻¹ s⁻¹; there is no need to write the unit.

Please review the following examples before continuing.
INSERT INTO assay_data (binder, reported_result) VALUES
  ('anti-TR-2 antibody M (antibody, V domains shown, also called Ab M) VH: EVQVVESGGGLVKPGGSLRLSCAASGFTFSSYSMNWVRQAPGKGLEWVSSISSSSSYIYYADSVKGRFTISRDNAKNSLYLQMNSLRAEDTAVYYCARGGSSWYGDWFDPWGQGTLVTVSS VL: DIQMTQSPSSVSASVGDRVTITCRASQGISSWLVWYQQKPGKAPKLLIYAASSLQSGVPSRFSGSGSGTDFTLTISSLQPEDFATYYCQQANSFPFTFGGGTKVEIK', 340000),
  ('anti-TR-2 antibody A (antibody, V domains shown, also called Ab A) VH: QVQLVQSGAEVKKPGASVKVSCKASGYTFTSYDINWVRQATGQGLEWMGWMNPNSDNTGYAQKFQGRVTMTRNTSISTAYMELSSLRSEDTAVYYCARWNHYGSGSHFDYWGQGTLVTVSS VL: DIQMTQSPSSLSASVGDRVTITCRASQSISIYLNWYQQKPGKAPKLLIYAASSLQSGVPLRFSGSGSGTDFTLTISSLQPEDIATYYCQQSYKTPLTFGGGTKVEIK', 530000);

# query: kon of entry anti-TR-2 antibody K (antibody, V domains shown, also called Ab K) VH: QVQLVESGGGVVQPGRSLRLSCAASGFTFSTYGMHWVRQAPGKGLEWVAVIWYDGSNKYYADSVKGRFTISRDNSKNTLYLQMNSLRAEDTAVYYCARDRTVYSSSSPFYYYYYGMDVWGQGTTVTVSS VL: DIQMTQSPSSLSASVGDRVTITCRASQSISSYLNWYQQKPGKAPKLLISATSSFQSGVPSRFSGSGSGTDFTLTISSLQPEDFAAYYCQQSYSTPLTFGGGTKVEIK
680000
